Provenance of the data: PubChem BioAssay (NCI)

- Test system: MDA-MB-231 breast
- experimental_protocol: NCI tumour cell line growth inhibition, 48 h
Listing of entries alongside the reported log10(TGI).
Scale: decimal log of TGI, TGI in µM.

# compound, target_under_test, readout_value
records = [
    ("COc1ccc(C2=NN(C(=O)COc3ccc(Cl)cc3)C(O)(c3cc(F)c(Cl)cc3Cl)C2)cc1OC (stereo not given)", "MDA-MB-231 breast", 0.81),
    ("CC([C@H]1CCC2C3CCC4C[C@@H](NC=O)CC[C@]4(C)C3CC[C@@]21C)N(C)C (stereo not given in full)", "MDA-MB-231 breast", 0.77),
]

According to the records, this compound CCCCCCCCCNCCCCCCCCC displays log10(TGI) of 0.51

###

Listing of entries alongside the reported TGI.
- Tested on: ACHN renal
- experimental_protocol: NCI tumour cell line growth inhibition, 48 h

# molecule, target_under_test, TGI
measured = [
    ("CCOC(=O)/C(=C\\c1ccc(OCc2ccccc2)c(OC)c1)C(=O)c1ccccc1", "ACHN renal", "34.8 µM"),
    ("CN(C)CCCN=C(N)N", "ACHN renal", "> 100 µM"),
    ("Nc1ccc(C(=O)c2ccc(N)c(Br)c2)cc1Br", "ACHN renal", "> 69.9 µM"),
    ("CCn1nc(-c2ccccc2)c2c1N(C)c1ccccc1-n1c(-c3ccccc3)nnc1-2", "ACHN renal", "26.8 µM"),
    ("COc1ccc(-c2cc(C3CC3)nc(SCC(=O)O)c2C#N)cc1", "ACHN renal", "> 100 µM"),
    ("Nc1ccccc1/C=C\\c1ccccc1", "ACHN renal", "> 100 µM"),
    ("C=C(C)[C@@H]1CC[C@]2(CO)CC[C@]3(C)[C@H](CC[C@@H]4[C@@]5(C)CC[C@H](O)C(C)(C)[C@@H]5CC[C@]43C)[C@@H]12", "ACHN renal", "25.6 µM"),
    ("COc1ccccc1C1=C2C(=O)N(C)C(c3ccccc3OC)=C2C(=O)N1C", "ACHN renal", "> 100 µM"),
    ("C[C@]12CC[C@H](O)CC1=CC[C@@H]1C2CC[C@]2(C)c3nn(-c4ccc(F)cc4)nc3CC12 (stereo not given in full)", "ACHN renal", "> 100 µM"),
]

Now consider the entry below.
According to the records, this molecule CC(=O)N1CC(C)(C)c2c1cc(C)c(O)c2C displays TGI of > 100 µM

###

- Tested on: T-47D breast
- experimental_protocol: NCI tumour cell line growth inhibition, 48 h; in the data active means GI50 below about 0.43 µM; inactive means the rest
Your reply should match one of these outcome classes. True (active), False (inactive)

# molecule, assigned_label
rows = [
    ("c1ccc2[nH]c(SSc3nc4ncncc4[nH]3)nc2c1", "False"),
    ("COc1ccc(C2=NN(C(=O)COc3ccc(Cl)cc3)C(O)(c3cc(F)c(Cl)cc3Cl)C2)cc1OC (stereo not given)", "False"),
    ("COC(=O)COc1ccc(/C=C2\\N=C(c3ccccc3)N(c3cc(C(F)(F)F)ccc3Cl)C2=O)cc1", "False"),
    ("Fc1ccc(Oc2nccc(-c3c(-c4ccc(F)cc4)ncn3C3CCNCC3)n2)cc1", "False"),
    ("N=C1c2nc3n(c2C(=O)c2nc4n(c21)CCCC4)CCCC3", "False"),
]

INPUT: Dear colleague, could you share the recorded outcome for CCCCCCCCCNCCCCCCCCC when you have a moment?
OUTPUT: False

INPUT: Dear colleague, could you share the recorded outcome for Cn1ccc2c(NCCN)c3c(c(NCCN)c21)C(=O)c1ccccc1C3=O when you have a moment?
OUTPUT: False

INPUT: Dear colleague, could you share the recorded outcome for COc1cc(C(=O)O[C@H](C(=O)NCCNC(=O)[C@@H](OC(=O)c2cc(OC)cc3c(C)cccc23)[C@]2(C)CO2)[C@]2(C)CO2)c2cccc(C)c2c1 when you have a moment?
OUTPUT: True

INPUT: Dear colleague, could you share the recorded outcome for CCCc1ccc(S(=O)(=O)N[C@H]2CC[C@H]3[C@@H]4CCc5cc(O)ccc5[C@H]4CC[C@]23C)cc1 when you have a moment?
OUTPUT: False

INPUT: Dear colleague, could you share the recorded outcome for COc1ccc(CNc2nc3cc(N)cc(N)c3nc2-c2ccccc2)cc1OC when you have a moment?
OUTPUT: False
